tested on: NMDA receptors (NMDARs); test: Whole-cell patch-clamp of NMDA-activated currents in primary cultures of cortical neurons; type: cell-based, rat; settings: read-out: IC50 for ATL inhibition of NMDAR currents; −70 mV, 2 mM Ca2+
measure.name: IC50 (µM)

smiles_data=CN(C)CCC=C1c2ccccc2CCc2ccccc21 tgt="NMDA receptors (NMDARs)" numeric_result=4.9

====

Tested on: NMDA receptors (NMDARs)
Assay: Whole-cell patch-clamp of NMDA-activated currents in primary cultures of cortical neurons
Type: cell-based, rat
Conditions: read-out: IC50 for ATL inhibition of NMDAR currents; −70 mV, 1 mM Ca2+, control (intact) neurons
Procedure: All manipulations on animals were performed in accordance with the guide of the Federation for Laboratory Animal Science Associations and were approved by the Animal Care and Use Committees of Sechenov Institute. […] Whole-cell currents were recorded from cultured rat cortical neurons using a MultiClamp 700B patch-clamp amplifier with Digidata 1440 A controlled by pClamp v10.2 software (Molecular Devices). […] Whole-cell membrane currents activated by NMDA were measured at steady state. […]
measure.name: IC50 (µM)

smiles_data=CN(C)CCC=C1c2ccccc2CCc2ccccc21 tgt="NMDA receptors (NMDARs)" measure_name=IC50 numeric_result=21.6
